Provide the reported zone of inhibition at 2000 µg/mL of each item.
Tested on: Escherichia coli
Assay explanation: Antibacterial activity against Escherichia coli X580 at 2 mg/ml after overnight incubation by hole plate method
Format: functional
Assay context: read-out: DIZ
Answers are plain numbers, in mm.

Smiles string | Units symbol | Assay result
Cc1c2c(nn1-c1ccc(-c3cc(-c4ccc(F)cc4)nc(N)n3)cc1)-c1ccccc1S(=O)(=O)N2C | mm | 15
Cc1c2c(nn1-c1ccc(C(=O)/C=C/c3ccc(Br)cc3)cc1)-c1ccccc1S(=O)(=O)N2C | mm | 15
Cc1c2c(nn1-c1ccc(-c3cc(-c4ccccc4)nc(N)n3)cc1)-c1ccccc1S(=O)(=O)N2C | mm | 14

Consider the record given below.
(Q) Reported zone of inhibition at 2000 µg/mL, compound Cc1c2c(nn1-c1ccc(C(=O)/C=C/c3cccc(Cl)c3)cc1)-c1ccccc1S(=O)(=O)N2C : ____
(A) 15

* * *

Record form. Attribute: zone of inhibition at 2000 µg/mL. Fill in for each entry.
System: Escherichia coli
Assay explanation: Antibacterial activity against Escherichia coli X580 at 2 mg/ml after overnight incubation by hole plate method
Assay type: functional
Assay context: read-out: DIZ
One number for each entry, in mm.

Smiles string | zone of inhibition at 2000 µg/mL [mm]
COc1cc(-c2cc(-c3ccc(-n4nc5c(c4C)N(C)S(=O)(=O)c4ccccc4-5)cc3)nc(N)n2)cc(OC)c1OC | 13
Cc1c2c(nn1-c1ccc(-c3cc(-c4ccc(Br)cc4)nc(N)n3)cc1)-c1ccccc1S(=O)(=O)N2C | 19
Cc1ccc(-c2cc(-c3ccc(-n4nc5c(c4C)N(C)S(=O)(=O)c4ccccc4-5)cc3)nc(N)n2)cc1 | 14
Cc1c2c(nn1-c1ccc(C(=O)/C=C/c3ccc(Cl)cc3Cl)cc1)-c1ccccc1S(=O)(=O)N2C | 16
Cc1c2c(nn1-c1ccc(C(=O)/C=C/c3ccc(F)cc3)cc1)-c1ccccc1S(=O)(=O)N2C | 14

Go through the items and report each one's zone of inhibition at 2000 µg/mL.
1. Cc1c2c(nn1-c1ccc(-c3cc(-c4cccc(Br)c4)nc(N)n3)cc1)-c1ccccc1S(=O)(=O)N2C
2. Cc1cc(C)c(C(=O)/C=C/c2ccc(-n3nc4c(c3C)N(C)S(=O)(=O)c3ccccc3-4)cc2)c(C)c1
3. COc1ccc(C(=O)/C=C/c2ccc(-n3nc4c(c3C)N(C)S(=O)(=O)c3ccccc3-4)cc2)cc1

(A)
[14, 15, 15]

* * *

Test system: Escherichia coli
Assay explanation: Antibacterial activity against Escherichia coli X580 at 2 mg/ml after overnight incubation by hole plate method
Format: functional
Assay context: read-out: DIZ
Measured attribute: zone of inhibition at 2000 µg/mL

Smiles string | zone of inhibition at 2000 µg/mL
Cc1c2c(nn1-c1ccc(C(=O)/C=C/c3ccc([N+](=O)[O-])cc3)cc1)-c1ccccc1S(=O)(=O)N2C | 15 mm
COc1ccc(/C=C/C(=O)c2ccc(-n3nc4c(c3C)N(C)S(=O)(=O)c3ccccc3-4)cc2)cc1OC | 15 mm
Cc1c2c(nn1-c1ccc(-c3cc(-c4ccc([N+](=O)[O-])cc4)nc(N)n3)cc1)-c1ccccc1S(=O)(=O)N2C | 14 mm
Cc1c2c(nn1-c1ccc(C(=O)/C=C/c3ccc(Cl)cc3)cc1)-c1ccccc1S(=O)(=O)N2C | 13 mm
COc1ccccc1/C=C/C(=O)c1ccc(-n2nc3c(c2C)N(C)S(=O)(=O)c2ccccc2-3)cc1 | 16 mm

Each compound below has a reported value. Please supply its zone of inhibition at 2000 µg/mL.
1. Cc1cc(C)c(-c2cc(-c3ccc(-n4nc5c(c4C)N(C)S(=O)(=O)c4ccccc4-5)cc3)nc(N)n2)c(C)c1
2. Cc1c2c(nn1-c1ccc(-c3cc(-c4ccc(Cl)cc4)nc(N)n3)cc1)-c1ccccc1S(=O)(=O)N2C
3. Cc1c2c(nn1-c1ccc(/C=C/C(=O)c3ccc(Cl)cc3)cc1)-c1ccccc1S(=O)(=O)N2C

(A)
1: 15 mm; 2: 16 mm; 3: 14 mm
